molecular target: S1-Fc (SARS-CoV-2, UniProt P0DTC2 16-685); experiment: phage ELISA
Would you mind telling me the reported specificity ELISA, percent binding relative to Acro S1 of each entry?
Expressed in %, but write only the number.

Can you look up the measured specificity ELISA, percent binding relative to Acro S1 of SARS-CoV-2 variant 1-27 (antibody, V domains shown) VH: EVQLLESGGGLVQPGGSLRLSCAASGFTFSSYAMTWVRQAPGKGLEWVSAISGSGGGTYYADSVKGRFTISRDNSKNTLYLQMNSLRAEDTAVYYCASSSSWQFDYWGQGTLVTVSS VL: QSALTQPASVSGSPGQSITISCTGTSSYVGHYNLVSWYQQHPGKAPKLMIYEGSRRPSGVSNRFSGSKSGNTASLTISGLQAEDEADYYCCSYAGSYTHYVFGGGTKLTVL for me?
84.8

Can you look up the measured specificity ELISA, percent binding relative to Acro S1 of SARS-CoV-2 variant 1-37 (antibody, V domains shown) VH: EVQLLESGGGLVQPGGSLRLSCAASGFTFTSYAMNWVRQAPGKGLEWVTAISGSGGSTFYADSVKGRFTISRDNSKNTLYLQMNSLRAEDTAVYYCTRPPYGDYGDYWGQGTLVTVSS VL: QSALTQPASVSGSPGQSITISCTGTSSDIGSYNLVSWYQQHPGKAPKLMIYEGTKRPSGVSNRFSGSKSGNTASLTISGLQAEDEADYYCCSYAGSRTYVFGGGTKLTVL for me?
46.7

Can you look up the measured specificity ELISA, percent binding relative to Acro S1 of SARS-CoV-2 variant 1-5 (antibody, V domains shown) VH: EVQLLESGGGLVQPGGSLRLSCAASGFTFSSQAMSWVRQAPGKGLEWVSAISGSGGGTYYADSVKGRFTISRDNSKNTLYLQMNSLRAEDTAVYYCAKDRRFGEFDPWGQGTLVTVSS VL: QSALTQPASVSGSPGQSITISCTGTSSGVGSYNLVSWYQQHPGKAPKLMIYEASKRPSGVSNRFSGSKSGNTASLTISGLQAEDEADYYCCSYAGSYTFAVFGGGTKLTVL for me?
82.9

Hello, the source for this data is patent US20210395344A1, in case you need it.
